These entries and their values trace back to patent US9718790B2.

- Measured on: human P2X3 receptor (Homo sapiens (Human), UniProt P56373)
- Sequence (P56373 whole entry): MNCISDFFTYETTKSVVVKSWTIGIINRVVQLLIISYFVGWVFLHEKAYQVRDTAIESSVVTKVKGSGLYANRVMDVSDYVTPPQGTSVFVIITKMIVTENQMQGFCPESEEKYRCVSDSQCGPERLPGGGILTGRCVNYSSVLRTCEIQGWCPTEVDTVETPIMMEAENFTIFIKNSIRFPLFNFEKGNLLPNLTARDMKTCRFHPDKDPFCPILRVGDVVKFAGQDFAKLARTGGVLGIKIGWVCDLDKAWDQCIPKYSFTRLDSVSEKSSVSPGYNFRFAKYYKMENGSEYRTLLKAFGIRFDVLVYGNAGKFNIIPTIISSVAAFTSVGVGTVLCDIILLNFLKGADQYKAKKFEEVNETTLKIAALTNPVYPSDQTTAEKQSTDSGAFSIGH
- Test method notes: Evaluation of human P2X3 receptor inhibitory activity (Fluo-3 calcium fluorescence, FDSS 3000, ATP stimulation)
- Type: cell-based
- Condition notes: human P2X3 receptor, Test Example 1
Measured parameter: pIC50
In textbook form, pIC50 equals minus log to base ten of the concentration in mol/L.

As a guide, the following entries are already answered.
Mol	Reported result
CC[C@H](C)n1c(=O)[nH]/c(=N\c2ccc(Oc3cncc(C(=O)O)c3)cc2)n(Cc2ccc(Cl)cc2)c1=O	8.10
CCOC(=O)Cn1c(=O)[nH]/c(=N\c2ccc(Oc3ncc(C)s3)cc2)n(Cc2ccc(Cl)cc2)c1=O	8.22
CCn1c(=O)[nH]/c(=N\c2ccc(Oc3ccc(C(=O)OC)nc3)cc2)n(Cc2ccc(Cl)cn2)c1=O	8.00

For reference, reported pIC50 for O=c1[nH]/c(=N\c2ccc(Oc3cncc(F)c3)cc2)n(Cc2ccc(Cl)cc2)c(=O)n1CCO stands at 8.05

Given item Cc1ccc(Cn2c(=O)n(CCC(=O)O)c(=O)[nH]/c2=N\c2ccc(Oc3cccc(C(N)=O)n3)cc2)cc1 , the value recorded as its pIC50 is 7.92

So, COc1cc(/N=c2\[nH]c(=O)n(C)c(=O)n2Cc2ccc(Cl)cc2)ccc1Oc1cccc(C(=O)O)n1 ? Its pIC50 was 7.70

Just so you know, measured pIC50 for CCn1c(=O)[nH]/c(=N\c2ccc(Oc3ccnc(C(N)=O)c3)cc2)n(Cc2ccc(Cl)cn2)c1=O came out at 7.70

compound Cc1nsc(Oc2ccc(/N=c3\[nH]c(=O)n(C[C@H](O)CO)c(=O)n3Cc3ccc(Cl)cc3)cc2)n1 , pIC50 observed: 8.40

* * *

- Measured on: human P2X3 receptor (Homo sapiens (Human), UniProt P56373)
- Test method notes: Evaluation of human P2X3 receptor inhibitory activity (Fluo-3 calcium fluorescence, FDSS 3000, ATP stimulation);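 also: stimulus was 50 nM ATP with fluorescence followed for 3 min, and the response per well was peak post-ATP fluorescence divided by the reading at measurement start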
- Format: cell-based
- Condition notes: C6BU-1 cells stably expressing human P2X3 receptor, Fluo-3 fluorescence, FDSS 3000
Measured pIC50, listed per entry for reference.
Answer as the number alone; pIC50 is minus log10 of concentration in mol/L.

Recorded pIC50, per entry:
Molecule	Reported result
CCOC(=O)C1(Cn2c(=O)[nH]/c(=N\c3ccc(OC(C)C)cc3)n(Cc3ccc(Cl)cc3)c2=O)CC1 [Compound I-0987]	7.82
COC(=O)[C@@H](C)Cn1c(=O)[nH]/c(=N\c2ccc(N3CCCCC3)cc2)n(Cc2ccc(C)cc2)c1=O [Compound I-1085]	7.47
CCn1c(=O)[nH]/c(=N\c2ccc(Oc3ccc(O)nc3)cc2)n(Cc2ccc(Cl)cc2)c1=O [Compound I-1848]	7.85
CCc1cc2cc(/N=c3\[nH]c(=O)n(C[C@H](C)C(=O)OC)c(=O)n3Cc3ccc(Cl)cc3)ccc2o1 [Compound I-1765]	8.05
COC(=O)CCn1c(=O)[nH]/c(=N\c2cn(C)nc2C(=O)NC(C)C)n(Cc2ccc(C)cc2)c1=O [Compound I-1804]	6.79

Record CCc1nc2ccc(/N=c3\[nH]c(=O)n(CCCC(=O)O)c(=O)n3Cc3ccc(C)cc3)cc2s1 [Compound I-1631] . Reported pIC50: 8.10

For reference, reported pIC50 for CCc1oc2ccc(/N=c3\[nH]c(=O)n(C[C@H](C)NC(C)=O)c(=O)n3Cc3ccc(Cl)cc3)cc2c1C [Compound I-1666] stands at 8.00

molecule CC[C@@H](C)Oc1ccc(/N=c2\[nH]c(=O)n(CCC(=O)O)c(=O)n2Cc2ccc(C)cc2)cc1C [Compound I-1029] , pIC50 observed: 7.46

Query CCOC(=O)CCn1c(=O)[nH]/c(=N\c2ccc(OCC3CC3)c(Cl)c2)n(Cc2ccc(C)cc2)c1=O [Compound I-0957] yields pIC50 of 7.60

* * *

- Measured on: human P2X3 receptor (Homo sapiens (Human))
- Test method notes: Evaluation of human P2X3 receptor inhibitory activity (Fluo-3 calcium fluorescence, FDSS 3000, ATP stimulation)
- Assay type: cell-based
- Condition notes: human P2X3 receptor, Test Example 1
Catalogue of molecules with associated pIC50
pIC50 field: float, defined as -log10 of concentration (mol/L).

Kindly note the recorded pIC50 for CCCOc1ccc(/N=c2\[nH]c(=O)n(C[C@H](CC)C(=O)O)c(=O)n2Cc2ccc(Cl)cc2)cc1 , which is 7.49

For reference, reported pIC50 for Cc1nsc(Oc2ccc(/N=c3\[nH]c(=O)n(C[C@@H](O)CO)c(=O)n3Cc3ccc(Cl)cc3)cc2)n1 stands at 8.10

Form: molecule = Cc1nsc(Oc2ccc(/N=c3\[nH]c(=O)n(CCC(=O)O)c(=O)n3Cc3ccc(Cl)cc3)cc2)n1 ; pIC50 = 7.72

The molecule identified as COC(=O)[C@@H](C)Cn1c(=O)[nH]/c(=N\c2ccc(OC(C)C)c(C)c2)n(Cc2ccc(Br)cc2)c1=O registered its pIC50 at 7.77
